Molecular target: UniProtKB P42866
Sequence (P42866 whole entry): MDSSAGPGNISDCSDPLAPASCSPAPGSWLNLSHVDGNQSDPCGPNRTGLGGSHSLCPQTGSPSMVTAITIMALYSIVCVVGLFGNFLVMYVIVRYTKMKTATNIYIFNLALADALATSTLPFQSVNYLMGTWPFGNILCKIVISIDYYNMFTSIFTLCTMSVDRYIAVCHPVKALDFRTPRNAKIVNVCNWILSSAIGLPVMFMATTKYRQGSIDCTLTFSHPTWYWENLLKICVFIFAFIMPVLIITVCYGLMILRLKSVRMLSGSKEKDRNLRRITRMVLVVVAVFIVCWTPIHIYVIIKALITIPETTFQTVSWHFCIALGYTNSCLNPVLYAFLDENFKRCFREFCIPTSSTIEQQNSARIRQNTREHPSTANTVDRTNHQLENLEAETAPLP
pKi: −log10 of the molar value.
Classify as follows. Reported pKi greater than or equal to 8: condition met. Reported pKi below: condition not met.

| structure-smiles-string | assigned-category |
| --- | --- |
| O=C1CC[C@@]2(O)[C@H]3CC4=C(CCCC4)[C@@]2(CCN3CC2CC2)C1 | condition not met |
| CN(C(=O)/C=C/c1ccoc1)[C@@H]1CC[C@H]2CN(CC3CC3)CC[C@@H]2C1 | condition not met |
| CN(C(=O)/C=C/c1ccoc1)[C@@H]1CC[C@H]2[C@H]3CC4=C(CCCC4)[C@@]2(CCN3CC2CC2)C1 | condition not met |
| CN(C(=O)/C=C/c1ccoc1)[C@@H]1CC[C@@]2(O)[C@H]3Cc4ccc(O)cc4[C@@]2(CCN3CC2CC2)C1 | condition met |
| CN[C@@H]1CC[C@@]2(O)[C@H]3CC4=C(CCCC4)[C@@]2(CCN3CC2CC2)C1 | condition not met |

Req: Has `CN(C(=O)/C=C/c1ccoc1)[C@@H]1CC[C@@]2(O)[C@H]3Cc4cccc5c4[C@@]2(CCN3CC2CC2)[C@H]1O5` a recorded pKi greater than or equal to 8?
Resp: condition not met

Req: Record `CN(C(=O)/C=C/c1ccoc1)[C@@H]1CC[C@H]2[C@H]3Cc4ccc(O)c5c4[C@@]2(CCN3CC2CC2)[C@H]1O5` ; criterion: pKi no lower than 8. Met?
Resp: condition met

Req: Could you verify whether the entry `CN(C(=O)/C=C/c1ccoc1)[C@@H]1CC[C@@]2(O)[C@H]3CC4=C(CCCC4)[C@@]2(CCN3CC2CC2)C1` shows pKi of no less than 8?
Resp: condition not met

* * *

Test: Selectivity ratio of Ki for delta opioid receptor in mouse cerebellum to Ki for kappa opioid receptor in guinea pig cerebellum
Format: tissue-based
So I've got a bunch of compounds here, and I need their Ratio Ki values.
Answers are plain numbers.

Hi team, please reply with Ratio Ki for each item in this list.
1. O=C1CC[C@@]2(O)[C@H]3CC4=C(CCCC4)[C@@]2(CCN3CC2CC2)C1
2. CN(C(=O)/C=C/c1ccoc1)[C@@H]1CC[C@H]2[C@H]3Cc4ccc(O)c5c4[C@@]2(CCN3CC2CC2)[C@H]1O5
3. CN(C(=O)/C=C/c1ccoc1)[C@@H]1CC[C@@]2(O)[C@H]3CC4=C(CCCC4)[C@@]2(CCN3CC2CC2)C1
4. CN(C(=O)/C=C/c1ccoc1)[C@@H]1CC[C@@]2(O)[C@H]3Cc4ccc(O)cc4[C@@]2(CCN3CC2CC2)C1
5. CN(C(=O)/C=C/c1ccoc1)[C@@H]1CC[C@H]2[C@H]3CC4=C(CCCC4)[C@@]2(CCN3CC2CC2)C1

Resp:
[1.19, 25.3, 54.5, 11.8, 16.1]

* * *

Biological target: Delta-type opioid receptor (Mus musculus, UniProt P32300)
Sequence (P32300 whole entry): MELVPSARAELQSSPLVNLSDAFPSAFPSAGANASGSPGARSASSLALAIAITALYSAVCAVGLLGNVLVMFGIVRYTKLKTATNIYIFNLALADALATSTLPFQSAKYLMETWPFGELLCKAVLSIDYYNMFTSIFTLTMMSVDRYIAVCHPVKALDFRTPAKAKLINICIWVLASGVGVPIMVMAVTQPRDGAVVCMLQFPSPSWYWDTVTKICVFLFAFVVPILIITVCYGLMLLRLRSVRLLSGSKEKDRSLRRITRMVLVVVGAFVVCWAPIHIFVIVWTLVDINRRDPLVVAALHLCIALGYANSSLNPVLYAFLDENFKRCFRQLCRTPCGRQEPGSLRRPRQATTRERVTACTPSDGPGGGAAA
Assay: Displacement of [3H]DPDPE from delta opioid receptor in mouse cerebellum
test-readout: Ki (nM)
Give bare numbers, in nM.

| structure-smiles-string | Ki, nM |
| --- | --- |
| O=C1CC[C@@]2(O)[C@H]3CC4=C(CCCC4)[C@@]2(CCN3CC2CC2)C1 | 939 |

Now take the following compound into account.
Req: Name the recorded Ki for `CN(C(=O)/C=C/c1ccoc1)[C@@H]1CC[C@@]2(O)[C@H]3Cc4ccc(O)cc4[C@@]2(CCN3CC2CC2)C1` .
Resp: 2.09

Values were extracted from ChEMBL document CHEMBL2057184.
